- Test system: Escherichia coli ATCC 25922
- Test protocol: antibacterial MIC, microtitration broth method
- Assay type: cell-based
- Experimental setup: ATCC25922, 24 h, 37 °C
Below, each of the molecules is paired with its reported MIC value.

Completed entries (count: 5):
COc1ccc(NC(=O)OCC(O)CN2CCN(c3cccc(C(F)(F)F)c3)CC2)cc1 (centres unmarked) [Compound 5e]	> 523 µM
COc1cccc(NC(=O)OCC(O)CN2CCN(c3ccc(F)cc3)CC2)c1 (centres unmarked) [Compound 5i]	> 582 µM
CCOc1ccccc1NC(=O)OCC(O)CN1CCN(c2cccc(C(F)(F)F)c2)CC1 (centres unmarked) [Compound 5b]	> 508 µM
CC1(C)S[C@@H]2[C@H](NC(=O)[C@H](N)c3ccccc3)C(=O)N2[C@H]1C(=O)O [AMP, ampicillin, reference compound]	> 45.8 µM
CCOc1ccccc1NC(=O)OCC(O)CN1CCN(c2ccc(F)cc2)CC1 (centres unmarked) [Compound 5h]	> 564 µM

Documented MIC of COc1ccc(NC(=O)OCC(O)CN2CCN(c3ccc(F)cc3)CC2)cc1 (centres unmarked) [Compound 5k] : > 582 µM

Looking up COc1ccccc1NC(=O)OCC(O)CN1CCN(c2ccc(F)cc2)CC1 (centres unmarked) [Compound 5g] , I found its MIC recorded as > 582 µM

For CCOc1cccc(NC(=O)OCC(O)CN2CCN(c3ccc(F)cc3)CC2)c1.Cl (centres unmarked) [Compound 5j] the molecule record lists MIC as > 564 µM
